Origin of values: paper PMC8924211

System Under Test: T1, SNAP-GAL1R I266^6.54A (human, UniProt P47211 1-349, I266^6.54A, Lumi4-Tb on the SNAP tag)
T1 construct: also called I266A; source: HEK293, transfected, on cells; not shown: SNAP tag, N-terminal, kept
T1 sequence (looked up): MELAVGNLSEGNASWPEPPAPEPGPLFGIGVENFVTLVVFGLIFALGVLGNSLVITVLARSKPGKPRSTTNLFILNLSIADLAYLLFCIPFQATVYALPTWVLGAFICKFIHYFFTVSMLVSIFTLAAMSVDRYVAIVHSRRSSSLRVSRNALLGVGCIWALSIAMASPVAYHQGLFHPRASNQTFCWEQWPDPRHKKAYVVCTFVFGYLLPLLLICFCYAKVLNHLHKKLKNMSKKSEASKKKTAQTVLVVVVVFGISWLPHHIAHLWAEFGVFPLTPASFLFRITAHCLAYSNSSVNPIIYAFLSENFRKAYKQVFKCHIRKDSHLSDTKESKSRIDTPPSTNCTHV
Run Description: AlphaScreen or HTRF; saturation binding: HEK293 cells transfected with SNAP-tagged receptor (WT or mutant) and labelled with SNAP-Lumi4-Tb, incubated with increasing concentrations of galanin-A2 in the presence or absence of 100 uM unlabeled galanin, 1 h at room temperature; HTRF ratio 665 nm/620 nm
Experimental Parameters: one partner purified
Quantity: Kd (nM)
# number only, unit nM dropped from output

(Q) Retrieve Kd measured for GWTLNSAGYLLGPHAVGNHRSFSDKNGLTSC (dye A2 on the additional C-terminal cysteine, numbers count on: the mature protein; additional cysteine at the C-terminal end of the peptide, carries the dye A2; source: synthetic peptide (synthesized by Vazyme, China)) and print it.
(A) 245
